Reference source for all entries: patent US11179400B2

Test system: Human RSV-A (“Long” strain)
Experiment: RSV in vitro cytoprotection assay in HEp-2 cells (ATPlite read-out)
Type: cell-based
Settings: human respiratory syncytial virus, 96 h; HEp-2 cells, genotype A “Long” strain RSV, 4-day incubation, ATPlite; read-out: Human RSV-A (“Long” strain) EC50
pEC50: −log10 of the molar value.
property_name: pEC50

Below are worked cases with known answers.
{"item_smiles": "Cc1cnc(N2CC3(CCOCC3)C2)c(C(=O)Nc2ccc(C(=O)N3CCC(c4ccc(C(=O)NC5CC(F)(F)C5)s4)=Cc4ccccc43)cc2)c1", "pEC50": "> 8.00"}
{"item_smiles": "Cc1cnc(N2CC3(CCOCC3)C2)c(C(=O)Nc2ccc(C(=O)N3CCC(c4ccc(C(=O)NC5CC5)cc4)=Cc4ccccc43)cc2)c1", "pEC50": "> 8.00"}
{"item_smiles": "Cc1ccc(C(=O)Nc2ccc(C(=O)N3CCC(c4ccc(C(=O)Nc5c(F)cccc5F)s4)=Cc4ccccc43)cc2)c(N2CC3(CCOCC3)C2)n1", "pEC50": "7.30 to 8.00"}

For the next question, use this compound.
Entry Cc1cnc(N2CC3(CCOCC3)C2)c(C(=O)Nc2ccc(C(=O)N3CCC(c4ccc(C(=O)Nc5c(C)cccc5F)s4)=Cc4ccccc43)cc2)c1 ; pEC50 = 7.30 to 8.00
